- tgt: GlunN1/GluN2A glutamate receptors (Homo sapiens, UniProt Q05586+Q12879)
- Construct: expressed in transfected cells
- Sequence (Q12879 23-1464, other chains not shown): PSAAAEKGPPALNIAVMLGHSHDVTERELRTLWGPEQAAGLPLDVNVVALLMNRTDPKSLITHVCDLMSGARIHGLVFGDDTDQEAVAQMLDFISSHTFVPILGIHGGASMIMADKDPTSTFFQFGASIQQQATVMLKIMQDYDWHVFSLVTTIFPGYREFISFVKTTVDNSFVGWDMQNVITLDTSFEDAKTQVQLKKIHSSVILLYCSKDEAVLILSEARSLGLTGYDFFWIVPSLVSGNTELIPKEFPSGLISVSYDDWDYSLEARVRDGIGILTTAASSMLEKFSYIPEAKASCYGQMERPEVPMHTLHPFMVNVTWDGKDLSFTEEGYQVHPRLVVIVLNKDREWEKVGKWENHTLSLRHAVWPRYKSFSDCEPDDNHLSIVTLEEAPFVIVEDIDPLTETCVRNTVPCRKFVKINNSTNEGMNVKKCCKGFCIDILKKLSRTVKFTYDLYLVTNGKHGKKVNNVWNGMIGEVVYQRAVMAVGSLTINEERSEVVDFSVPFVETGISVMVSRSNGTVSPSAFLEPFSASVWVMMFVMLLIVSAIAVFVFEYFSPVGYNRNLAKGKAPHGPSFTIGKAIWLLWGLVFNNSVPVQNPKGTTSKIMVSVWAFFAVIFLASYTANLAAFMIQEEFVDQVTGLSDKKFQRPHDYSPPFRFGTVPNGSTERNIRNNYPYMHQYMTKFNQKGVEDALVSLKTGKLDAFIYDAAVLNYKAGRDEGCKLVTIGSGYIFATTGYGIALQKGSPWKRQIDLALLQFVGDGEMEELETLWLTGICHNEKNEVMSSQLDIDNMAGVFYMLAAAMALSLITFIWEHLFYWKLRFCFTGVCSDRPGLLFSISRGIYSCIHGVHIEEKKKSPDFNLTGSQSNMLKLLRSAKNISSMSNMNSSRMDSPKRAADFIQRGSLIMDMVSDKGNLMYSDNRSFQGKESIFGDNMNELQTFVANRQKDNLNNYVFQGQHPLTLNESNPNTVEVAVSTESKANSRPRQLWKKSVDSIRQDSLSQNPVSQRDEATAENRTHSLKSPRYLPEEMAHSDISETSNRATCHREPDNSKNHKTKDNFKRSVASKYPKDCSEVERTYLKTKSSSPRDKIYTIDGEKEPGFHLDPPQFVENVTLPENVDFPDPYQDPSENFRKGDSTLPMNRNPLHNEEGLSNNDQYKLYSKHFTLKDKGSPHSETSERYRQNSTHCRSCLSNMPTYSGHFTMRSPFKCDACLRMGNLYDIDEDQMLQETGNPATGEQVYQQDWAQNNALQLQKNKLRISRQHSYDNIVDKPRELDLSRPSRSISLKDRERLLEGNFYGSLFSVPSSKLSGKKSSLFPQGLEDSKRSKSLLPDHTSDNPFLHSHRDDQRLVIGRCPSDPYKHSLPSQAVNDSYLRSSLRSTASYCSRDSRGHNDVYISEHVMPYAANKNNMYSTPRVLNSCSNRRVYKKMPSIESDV
- protocol: NMDA potentiation, whole-cell patch clamp of mammalian cells (IonWorks Barracuda, IWB)
- Format: cell-based
- run-parameters: 3 μM test article; HEK293 cells expressing human GRIN1/GRIN2A; co-application with EC20 L-glutamate and 30 μM glycine; read-out: GluN2A PCA IWB Ephys % potentiation at 3 μM
measured-property: activation at 3 µM

Guide cases for activation at 3 µM, answers given:
CC[C@]1(O)CC[C@@]2(C)C(=CC[C@H]3[C@@H]4CC[C@H]([C@H](C)CC[C@H](O)C(C)C)[C@@]4(C)CC[C@@H]32)C1 [Compound 10]
> 150%
CC[C@]1(O)CC[C@@]2(C)[C@@H](CC[C@@H]3[C@@H]2CC[C@]2(C)[C@@H]([C@H](C)CC[C@H](O)C4CC4)CC[C@@H]32)C1 [Compound 39]
10 to 75%
CC[C@]1(O)CC[C@@]2(C)[C@@H](CC[C@@H]3[C@@H]2CC[C@]2(C)[C@@H]([C@H](C)CCC(O)C4CC4)CC[C@@H]32)C1 (stereo partly shown) [Compound 38]
> 150%
CC[C@]1(O)CC[C@@]2(C)[C@@H](CC[C@@H]3[C@@H]2CC[C@]2(C)[C@@H]([C@H](C)CC[C@@H](O)C4CC4)CC[C@@H]32)C1 [Compound 40]
> 150%
CC[C@H](O)CC[C@@H](C)[C@H]1CC[C@H]2[C@@H]3CC[C@H]4C[C@@](C)(O)CC[C@]4(C)[C@H]3CC[C@]12C [Compound 9]
75 to 150%
CC[C@H](O)CC[C@@H](C)[C@H]1CC[C@H]2[C@@H]3CC=C4C[C@](O)(CC)CC[C@]4(C)[C@H]3CC[C@]12C [Compound 23]
> 150%

Inquiry: Need activation at 3 µM, item CC[C@]1(O)CC[C@@]2(C)C(=CC[C@H]3[C@@H]4CC[C@H]([C@H](C)CC[C@@H](O)C(C)C)[C@@]4(C)CC[C@@H]32)C1 [Compound 11]
Reply text: > 150%

Inquiry: What do we get for CC[C@]1(O)CC[C@@]2(C)C(=CC[C@H]3[C@@H]4CC[C@H]([C@H](C)CC[C@@H](O)CC(F)(F)F)[C@@]4(C)CC[C@@H]32)C1 [Compound 54] ?
Reply text: > 150%

Inquiry: Subsequent entry: C[C@H](CC[C@H](O)CC(F)(F)F)[C@H]1CC[C@H]2[C@@H]3CC[C@H]4C[C@@](C)(O)CC[C@]4(C)[C@H]3CC[C@]12C [Compound 47]
Reply text: > 150%

Inquiry: Input CC[C@]1(O)CC[C@@]2(C)C(=CC[C@H]3[C@@H]4CC[C@H]([C@H](C)CCC(O)CC(F)(F)F)[C@@]4(C)CC[C@@H]32)C1 (stereo partly shown) [Compound 52]
Reply text: > 150%

Inquiry: For C[C@H](CC[C@@H](O)CC(F)(F)F)[C@H]1CC[C@H]2[C@@H]3CC=C4C[C@@](C)(O)CC[C@]4(C)[C@H]3CC[C@]12C [Compound 46] then?
Reply text: > 150%

Inquiry: Record: CC[C@]1(O)CC[C@@]2(C)[C@@H](CC[C@@H]3[C@@H]2CC[C@]2(C)[C@@H]([C@H](C)CCC(C)O)CC[C@@H]32)C1 (stereo partly shown) [Compound 33]
Reply text: 10 to 75%

Inquiry: Now the compound CC[C@]1(O)CC[C@@]2(C)[C@@H](CC[C@@H]3[C@@H]2CC[C@]2(C)[C@@H]([C@H](C)CC[C@H](O)C(C)C)CC[C@@H]32)C1 [Compound 13]
Reply text: > 150%

Inquiry: Now consider C[C@H](CC[C@H](O)CC(F)(F)F)[C@H]1CC[C@H]2[C@@H]3CC=C4C[C@@](C)(O)CC[C@]4(C)[C@H]3CC[C@]12C [Compound 45] and answer again.
Reply text: > 150%

Inquiry: Item: C[C@H](CCC(O)C1CC1)[C@H]1CC[C@H]2[C@@H]3CC[C@H]4C[C@@](C)(O)CC[C@]4(C)[C@H]3CC[C@]12C (stereo partly shown) [Compound 30]
Reply text: > 150%
